IC50 values for the compounds below.
System: A549
Assay: Cytotoxicity against human A549 cells assessed as reduction in cell viability after 68 hrs by MTT assay
Assay type: functional, cell-based
Conditions: A549, 68 h
Endpoint Name: IC50

- Smiles Record: "COc1ccccc1NC(=O)Nc1ccc(Cc2c(C)c3cc(C(C)(C)C)c(O)cc3oc2=O)cn1"
  Assay Result: "1.66 to 19.4 µM"
- Smiles Record: "COc1ccc(OC)c(NC(=O)Nc2ccc(Cc3c(C)c4cc(C(C)(C)C)c(O)cc4oc3=O)cn2)c1"
  Assay Result: "1.66 to 19.4 µM"
- Smiles Record: "Cc1ccc(NC(=O)Nc2ccc(Cc3c(C)c4cc(C(C)(C)C)c(O)cc4oc3=O)cn2)cc1"
  Assay Result: "1.66 to 9.27 µM"
- Smiles Record: "Cc1c(Cc2ccc(NC(=O)Nc3ccc(F)c(F)c3)nc2)c(=O)oc2cc(O)c(C(C)(C)C)cc12"
  Assay Result: "1.66 to 7.86 µM"
- Smiles Record: "Cc1c(Cc2ccc(NC(=O)Nc3ccccc3Cl)nc2)c(=O)oc2cc(O)c(C(C)(C)C)cc12"
  Assay Result: "1.66 to 9.27 µM"
- Smiles Record: "Cc1c(Cc2ccc(NC(=O)Nc3ccccc3)nc2)c(=O)oc2cc(O)c(C(C)(C)C)cc12"
  Assay Result: "1.66 to 19.4 µM"
- Smiles Record: "Cc1ccc(NC(=O)Nc2ccc(Cc3c(C)c4cc(C(C)(C)C)c(O)cc4oc3=O)cn2)cc1C"
  Assay Result: "1.66 to 19.4 µM"
- Smiles Record: "CC(=O)c1ccc(NC(=O)Nc2ccc(Cc3c(C)c4cc(C(C)(C)C)c(O)cc4oc3=O)cn2)cc1"
  Assay Result: "1.66 to 19.4 µM"
